IC50 listing for selected compounds.
- experimental_system: FLT3-D835Y mutant kinase (Homo sapiens, UniProt P36888, D835Y)
- Construct: purchased SignalChem
- protocol_summary: FLT3-D835Y mutant kinase assay (AlphaScreen)
- Type: biochemical
- stated_conditions: read-out: Ranking of IC50 values, FLT3-D835Y
- Method: Inhibition of FLT3-D835Y mutant kinase activity by a test compound disclosed herein was estimated by AlphaScreen (PerkinElmer). […] Analysis of resulting product using an AlphaScreen kit and counted with Enspire Alpha (PerkinElmer). […] The IC50 values of inhibitors were determined after carrying out assays with each compound at serially diluted concentrations in duplication. The results were analyzed using linear regression software (GraphPad Prism 5; GraphPad Software Inc.)

Example cases with answers are listed next.
CC(C)n1ncc2ccc(-c3n[nH]c4c3Cc3sc(-c5ccc(CN6CCOCC6)cc5)cc3-4)cc21 | 1 to 10 nM
Cc1cc(CN2CCOCC2)ccc1-c1cc2c(s1)Cc1c(-c3ccc4cnn(C)c4c3)n[nH]c1-2 | 1 to 10 nM
CN1CCN(c2ccc(-c3cc4c(s3)Cc3c(-c5ccc6cnn(C)c6c5)n[nH]c3-4)cn2)CC1 | < 1 nM
C[C@@H]1CN(Cc2ccc(-c3cc4c(s3)Cc3c(-c5ccc6cnn(C)c6c5)n[nH]c3-4)cc2)C[C@H](C)O1 | < 1 nM
Cn1ncc2ccc(-c3n[nH]c4c3Cc3sc(-c5ccc(CN6CCSCC6)cc5)cc3-4)cc21 | 1 to 10 nM

So what's the measured IC50 for this one? `Cn1ncc2ccc(-c3n[nH]c4c3Cc3sc(N5CCOCC5)cc3-4)cc21` < 1 nM

Return reported IC50; argument: `CN1CCN(c2cc(-c3cc4c(s3)Cc3c(-c5ccc6cnn(C)c6c5)n[nH]c3-4)ccn2)CC1` < 1 nM

Could you share which IC50 value was measured for `C[C@@H]1CN(Cc2ccc(-c3cc4c(s3)Cc3c(-c5ccc6cn[nH]c6c5)n[nH]c3-4)cc2)C[C@H](C)O1` ? 1 to 10 nM

* * *

Below is a list of entries, each paired with its recorded pIC50 value.
- experimental_system: FLT3-D835Y mutant kinase (Homo sapiens, UniProt P36888, D835Y)
- Construct: purchased SignalChem
- Sequence (P36888 27-993 D835Y): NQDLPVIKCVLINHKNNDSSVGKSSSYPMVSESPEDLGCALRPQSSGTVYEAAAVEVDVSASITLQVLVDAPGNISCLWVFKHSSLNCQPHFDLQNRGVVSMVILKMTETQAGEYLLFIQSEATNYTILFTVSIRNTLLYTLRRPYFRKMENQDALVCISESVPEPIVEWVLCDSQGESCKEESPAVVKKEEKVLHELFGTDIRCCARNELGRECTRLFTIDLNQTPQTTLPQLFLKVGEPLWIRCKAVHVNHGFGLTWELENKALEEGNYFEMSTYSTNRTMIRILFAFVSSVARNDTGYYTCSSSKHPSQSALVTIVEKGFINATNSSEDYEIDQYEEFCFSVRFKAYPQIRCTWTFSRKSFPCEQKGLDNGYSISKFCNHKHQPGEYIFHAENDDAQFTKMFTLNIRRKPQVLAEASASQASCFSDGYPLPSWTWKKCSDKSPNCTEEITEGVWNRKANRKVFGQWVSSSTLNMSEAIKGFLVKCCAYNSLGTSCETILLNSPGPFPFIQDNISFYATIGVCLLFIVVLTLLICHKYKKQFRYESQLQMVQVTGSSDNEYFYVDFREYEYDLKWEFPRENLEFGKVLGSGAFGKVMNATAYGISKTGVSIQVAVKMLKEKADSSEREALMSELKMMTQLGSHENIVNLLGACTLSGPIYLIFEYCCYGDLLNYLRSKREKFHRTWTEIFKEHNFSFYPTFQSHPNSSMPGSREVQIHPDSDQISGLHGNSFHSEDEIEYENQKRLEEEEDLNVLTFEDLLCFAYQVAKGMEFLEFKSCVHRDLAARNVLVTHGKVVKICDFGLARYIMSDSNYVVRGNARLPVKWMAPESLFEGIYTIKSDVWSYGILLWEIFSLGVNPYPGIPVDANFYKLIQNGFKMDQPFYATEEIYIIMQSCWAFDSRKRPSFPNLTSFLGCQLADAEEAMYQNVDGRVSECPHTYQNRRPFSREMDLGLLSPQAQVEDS
- protocol_summary: FLT3-D835Y mutant kinase assay (AlphaScreen)
- Type: biochemical
- stated_conditions: read-out: Ranking of IC50 values, FLT3-D835Y
pIC50: −log10 of the molar value.

CCC(c1ccc(-c2cc3c(s2)Cc2c(-c4ccc5cnn(C)c5c4)n[nH]c2-3)cc1)N1CCOCC1 (centres unmarked) [Compound 28] | 8.00 to 9.00

Now consider the entry below.
Please look up its pIC50: Cn1ncc2ccc(-c3n[nH]c4c3Cc3sc(-c5ccc(CN6CCCC6)cc5)cc3-4)cc21 [Compound 99] > 9.00

* * *

- System: A375 melanoma cell with BRAF V600E mutation
- protocol_summary: A375 cell proliferation assay (counter screen)
- Format: cell-based, human
- stated_conditions: Homo sapiens, A-375, A375 cells, 72 hours treatment, CellTiter96, read-out: anti-proliferation activity A375 BRAF V600E, IC50 ranking
pIC50: −log10 of the molar value.
measure: pIC50

Consider the reported pIC50 for these molecules:
Cn1ncc2ccc(-c3n[nH]c4c3Cc3sc(-c5cccc(CN6CCOCC6)c5)cc3-4)cc21 | < 5.00
C[C@@H]1CN(Cc2ccc(-c3cc4c(s3)Cc3c(-c5ccc6cnn(C)c6c5)n[nH]c3-4)cn2)C[C@H](C)O1 | < 5.00
CN1CCN(Cc2cccc(-c3cc4c(s3)Cc3c(-c5ccc6cnn(C)c6c5)n[nH]c3-4)c2)CC1 | 5.00 to 6.00

Which pIC50 reading was recorded for the molecule `Cn1ncc2ccc(-c3n[nH]c4c3Cc3sc(-c5ccc(CN6CCNCC6=O)cc5)cc3-4)cc21` ? < 5.00

Given the molecule `Cc1n[nH]c2cc(-c3n[nH]c4c3Cc3sc(-c5ccc(CN6CCOCC6)cc5)cc3-4)ccc12` , what is its reported pIC50? 5.00 to 6.00

Which pIC50 value belongs to `Cn1ncc2ccc(-c3n[nH]c4c3Cc3sc(-c5csc(C(=O)N6CCOCC6)n5)cc3-4)cc21` ? 5.00 to 6.00

If you can, please state the reported pIC50 value of `Cn1ncc2ccc(-c3n[nH]c4c3Cc3sc(-c5ccc(CN6CCOCC6)c(C(F)(F)F)c5)cc3-4)cc21` . < 5.00

Looking for the measured pIC50 of `Cn1ncc2ccc(-c3n[nH]c4c3Cc3sc(-c5ccc(S(=O)(=O)N6CCOCC6)cc5)cc3-4)cc21` , can you help? < 5.00

* * *

Here's what we have: IC50 numbers for PDGFRα kinase (Homo sapiens).

Examples with answers:
Cn1ncc2ccc(-c3n[nH]c4c3Cc3sc(-c5ccc(CN6CCOCC6)c(F)c5)cc3-4)cc21 [Compound 25] | 0.001 to 0.01 µM
Cn1ncc2ccc(-c3n[nH]c4c3Cc3sc(-c5ccc(CN6CCCC6=O)cc5)cc3-4)cc21 [Compound 64] | 0.01 to 0.03 µM
CC(C)Cn1ncc2ccc(-c3n[nH]c4c3Cc3sc(-c5ccc(CN6CCOCC6)cc5)cc3-4)cc21 [Compound 35] | 0.03 to 0.1 µM
Cn1ncc2ccc(-c3n[nH]c4c3Cc3sc(-c5ccc(C(=O)N6CCCC6)cc5)cc3-4)cc21 [Compound 38] | 0.01 to 0.03 µM
Cn1ncc2ccc(-c3n[nH]c4c3Cc3sc(-c5ccc(N6CCOCC6)nc5)cc3-4)cc21 [Compound 82] | 0.1 to 0.3 µM

Reported IC50, molecule CC1C(=O)N(C)CCN1Cc1ccc(-c2cc3c(s2)Cc2c(-c4ccc5cnn(C)c5c4)n[nH]c2-3)cc1 (stereo not shown) [Compound 65] : ____ 0.001 to 0.01 µM

Entry Cn1ncc2ccc(-c3n[nH]c4c3Cc3sc(-c5ccc(CN6CC(F)(F)C6)cc5)cc3-4)cc21 [Compound 104] : reported IC50 = ? 0.03 to 0.1 µM

Please look up its IC50: Cn1ncc2ccc(-c3n[nH]c4c3Cc3sc(-c5ccc(CCN6CCOCC6=O)cc5)cc3-4)cc21 [Compound 66] > 1 µM

IC50 for Cn1ncc2ccc(-c3n[nH]c4c3Cc3sc(C5CCN(C(=O)OC(C)(C)C)CC5)cc3-4)cc21 [Compound 58] ? 0.03 to 0.1 µM

I would be grateful if you could share the reported IC50 for Cn1ncc2ccc(-c3n[nH]c4c3Cc3sc(-c5ccc(OCCN6CCOCC6)cc5)cc3-4)cc21 [Compound 69] . 0.01 to 0.03 µM

* * *

- experimental_system: FLT3-D835Y mutant kinase (Homo sapiens, UniProt P36888, D835Y)
- Construct: purchased SignalChem
- Sequence (P36888 27-993 D835Y): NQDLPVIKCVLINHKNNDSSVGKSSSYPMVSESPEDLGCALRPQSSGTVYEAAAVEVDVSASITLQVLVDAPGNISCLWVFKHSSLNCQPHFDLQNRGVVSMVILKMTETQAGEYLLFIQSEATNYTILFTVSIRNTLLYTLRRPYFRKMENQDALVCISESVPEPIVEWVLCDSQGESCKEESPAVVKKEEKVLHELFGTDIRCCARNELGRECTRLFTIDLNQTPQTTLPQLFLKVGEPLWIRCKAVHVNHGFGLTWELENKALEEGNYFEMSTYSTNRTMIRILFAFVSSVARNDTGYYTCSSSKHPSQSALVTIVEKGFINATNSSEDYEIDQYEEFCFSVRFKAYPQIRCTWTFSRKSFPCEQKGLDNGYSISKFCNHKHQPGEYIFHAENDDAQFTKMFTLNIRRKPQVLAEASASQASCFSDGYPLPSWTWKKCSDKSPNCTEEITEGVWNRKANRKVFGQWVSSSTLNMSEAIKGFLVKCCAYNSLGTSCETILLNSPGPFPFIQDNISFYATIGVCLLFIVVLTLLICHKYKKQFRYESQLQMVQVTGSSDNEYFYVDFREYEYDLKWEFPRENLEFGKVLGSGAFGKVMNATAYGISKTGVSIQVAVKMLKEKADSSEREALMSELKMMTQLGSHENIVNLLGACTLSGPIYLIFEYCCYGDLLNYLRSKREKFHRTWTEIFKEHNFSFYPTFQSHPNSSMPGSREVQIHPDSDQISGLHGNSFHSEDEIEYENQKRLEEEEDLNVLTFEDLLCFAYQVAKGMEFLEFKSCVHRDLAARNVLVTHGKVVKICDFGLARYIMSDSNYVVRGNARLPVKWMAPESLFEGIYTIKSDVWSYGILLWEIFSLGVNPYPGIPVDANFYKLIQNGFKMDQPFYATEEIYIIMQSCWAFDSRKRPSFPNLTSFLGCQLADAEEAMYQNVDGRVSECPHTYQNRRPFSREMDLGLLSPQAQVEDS
- protocol_summary: FLT3-D835Y mutant kinase assay (AlphaScreen)
- Assay type: biochemical
- stated_conditions: read-out: Ranking of IC50 values, FLT3-D835Y
# Lookup of reported IC50 keyed by entry

Field: example entries. Status: answers known.
COc1ccc(-c2cc3c(s2)Cc2c(-c4ccc5cnn(C)c5c4)n[nH]c2-3)cn1 | < 1 nM
Cn1ncc2ccc(-c3n[nH]c4c3Cc3sc(-c5ccc(C=C6CCOCC6)cc5)cc3-4)cc21 | 1 to 10 nM
CN(C)Cc1ccc(-c2cc3c(s2)Cc2c(-c4ccc5cnn(C)c5c4)n[nH]c2-3)cc1 | 1 to 10 nM
Cn1ncc2ccc(-c3n[nH]c4c3Cc3sc(-c5cccc(OCCN6CCOCC6)c5)cc3-4)cc21 | < 1 nM

Could you share which IC50 value was measured for `C[C@@H]1COCCN1Cc1ccc(-c2cc3c(s2)Cc2c(-c4ccc5cnn(C)c5c4)n[nH]c2-3)cc1` ? < 1 nM

Which IC50 value belongs to CC(c1ccc(-c2cc3c(s2)Cc2c(-c4ccc5cnn(C)c5c4)n[nH]c2-3)cc1)N1CCOCC1 (stereo not shown) ? 1 to 10 nM

Fill in the blank: the reported IC50 of `Cn1ncc2ccc(-c3n[nH]c4c3Cc3sc(C#CCN5CCOCC5)cc3-4)cc21` is ____. < 1 nM
